- ASSAY SYSTEM: Aldo-keto reductase family 1 member C1 (Homo sapiens, UniProt Q04828)
- Sequence (Q04828 whole entry): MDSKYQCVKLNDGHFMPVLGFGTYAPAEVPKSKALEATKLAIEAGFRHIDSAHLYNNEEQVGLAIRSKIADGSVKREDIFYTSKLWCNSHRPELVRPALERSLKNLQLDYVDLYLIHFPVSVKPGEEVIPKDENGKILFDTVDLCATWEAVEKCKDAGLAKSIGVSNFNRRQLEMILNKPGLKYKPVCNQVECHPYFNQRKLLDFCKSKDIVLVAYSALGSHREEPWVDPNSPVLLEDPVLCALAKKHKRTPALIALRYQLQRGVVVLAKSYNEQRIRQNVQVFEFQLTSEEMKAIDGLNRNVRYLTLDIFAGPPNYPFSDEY
- PROTOCOL SUMMARY: Inhibition of recombinant human AKR1C1 expressed in Escherichia coli BL21 cells in presence of 9,10-phenanthrenequinone and NADPH by fluorescence assay
pIC50: −log10 of the molar value.
Recorded pIC50 for the following compounds

# COMPOUND, pIC50
rows = [
    ("CCCc1nn(-c2ccccc2F)c2c1C(c1cc(OC)c(O)c([N+](=O)[O-])c1)C(C#N)=C(N)O2 (stereo unspecified)", 5.90),
    ("Cc1ccc(Cl)c(Nc2ccccc2C(=O)O)c1Cl", 6.13),
    ("COc1cc(C2C(C#N)=C(N)Oc3[nH]nc(CCCC(C)C)c32)cc([N+](=O)[O-])c1O (stereo unspecified)", 5.92),
    ("COc1cc(C2C(C#N)=C(N)Oc3[nH]nc(CC(C)(C)C)c32)cc([N+](=O)[O-])c1O (stereo unspecified)", 6.07),
    ("COc1cc(C2C(C#N)=C(N)Oc3[nH]nc(CCC(C)C)c32)cc([N+](=O)[O-])c1O (stereo unspecified)", 6.06),
    ("COc1cc(C2C(C#N)=C(N)Oc3[nH]nc(CCCc4ccccc4)c32)cc([N+](=O)[O-])c1O (stereo unspecified)", 6.10),
]
